Reported TGI is given for each of the following compounds.
Tested on: HOP-92 NSCLC
method: NCI tumour cell line growth inhibition, 48 h
assay readout: TGI

1. CCCC1(NC(=O)C(F)(F)F)CC(OC)OC2COC(c3ccccc3)OC21 (stereo not drawn): > 100 µM
2. Cc1ccc(NC(=O)C(=O)C(C#N)c2ccccc2C)cc1C (stereo not drawn): > 100 µM
3. O=C(CCC(NC(=O)OCc1ccccc1)C(=O)OCc1ccccc1)Nc1ccc(OCc2ccccc2)cc1 (stereo not drawn): > 31.6 µM

* * *

TGI overview
System: SR leukemia
method: NCI tumour cell line growth inhibition, 48 h
assay readout: TGI

1. CS(=O)(=O)N1CC(CCl)c2ccc([N+](=O)[O-])cc21 (configuration not stated): > 100 µM
2. COc1ccc(/C=C2\NC(=S)N(CN3CCCCC3)C2=O)cc1: > 100 µM
3. CSc1ncc2c(C#N)c3sc4ccccc4n3c(=O)c2n1: > 100 µM
4. N=c1c2c(C(N)=O)cn(C3OC(CO)C(O)C3O)c2ncn1O (configuration not stated): 0.234 µM
5. O=C(CCCN1CCC2(CC1)OC(=O)N(c1ccccc1)C2=O)c1ccccc1: > 100 µM
6. CC[C@H]1C=CCC[C@@]2(C[C@@H]3CC[C@@H]4[C@H](C(=O)OCCCCCCCCCCCCCCCC(=O)O)[C@]5(CCC[C@@H](C)O5)NC(=[N+]34)N2)O1: 0.357 µM
7. CN(C)CCCNC(=O)CCNC(=O)c1cc(NC(=O)c2cc(NC(=O)c3cc(NC(=O)c4nc(NC(=O)CCCNC(=O)c5cc(NC(=O)c6cc(NC(=O)c7cc(NC(=O)c8nccn8C)cn7C)cn6C)cn5C)cn4C)cn3C)cn2C)cn1C: > 100 µM
8. CCCCCCCCCCCC(=O)Oc1c(Cl)cc(Cl)c(OC(=O)C(=O)Oc2c(Cl)cc(Cl)c(OC(=O)CCCCCCCCCCC)c2Cl)c1Cl: > 100 µM
9. CCCCCCCCN=C(N)c1ccc(N2CCN(c3ccc(C(N)=NCCCCCCCC)cc3)CC2)cc1: 2.26 µM
10. N=c1oc2cc(O)ccc2cc1C(=O)NCc1ccccc1: 67 µM
11. CC(=O)CCCCC(=O)Nc1ccc(CC(NC(=O)OC(C)(C)C)C(=O)NCC(=O)OCc2ccccc2)cc1 (configuration not stated): 56.9 µM
12. CCOC(=O)c1cc(NS(=O)(=O)c2ccccc2)cc(C(=O)OCC)c1: > 100 µM
13. CCCc1[nH]c(SCCCCCCCCSc2nc(-c3ccc(F)cc3)c(CCC)[nH]2)nc1-c1ccc(F)cc1: > 100 µM
14. Cc1nc2cccc(F)c2c(=O)n1C1CCCCNC1=O (configuration not stated): > 10 µM
15. CC1=C(Oc2ccccc2)C(CCC(=O)O)c2c(O)cc(Cl)c(O)c21 (configuration not stated): > 100 µM
16. CC1OC(O[C@@H]2OC=C(C=O)[C@@]3(O)CC[C@H](C)[C@@H]23)C(O)C(O)C1O (some centres not stated): > 100 µM
17. CCOC(=O)c1c(N2CCCC2)nsc1Nc1ccc(F)cc1: > 100 µM
18. CC(=O)N1C(c2[nH]c3ccccc3c2-c2ccccc2)CCN1c1ccccc1 (configuration not stated): > 10 µM
19. COc1ccc2oc(=N)c(C(=O)NCc3ccccc3)cc2c1: > 100 µM
20. CCCCCCCCCCCCCCCCN1CC2CCCCC2C1 (configuration not stated): 4.64 µM
21. Cn1cccc1-c1cc(-c2cccs2)nc(N)c1C#N: 68.2 µM
22. O=C(CCCCCCC(=O)Nc1ccc(N(CCCl)CCCl)cc1)NO: 3.09 µM
23. Cc1csc(=S)n1OC(=O)NC1CCCCC1: 47.3 µM
24. CC(C)[C@H]1CO[C@]2(C)[C@@H]3CN(Cc4ccccc4)C[C@@H]3C(=O)N12: > 100 µM
25. O=C(/C=C/c1ccccc1)c1cc(Br)ccc1O: 12.3 µM
26. COc1cc(/C=C/c2cc(O)c3cc(C(C)=O)c(=O)oc3c2)cc2c1O[C@]1(C)CC[C@@H](O)C(C)(C)[C@H]1C2: > 100 µM
27. Cc1c(C(=O)C/C(=N\O)C(=O)Nc2cc(Cl)c(Cl)cc2Cl)[n+](=O)c2ccccc2n1[O-]: 84.4 µM
28. Cc1ccc(N=Cc2ccc3c(c2)OCO3)cc1C: > 100 µM
29. COC(C(=O)[O][Ge]([CH3])([CH3])[CH3])c1ccccc1 (configuration not stated): > 100 µM
30. CC1(C)C(=NNC(=O)C[N+](C)(C)C)C(C)(C)C1=NNC(=O)C[N+](C)(C)C: > 100 µM
31. C[n+]1c2ccccc2c(C(=O)Nc2ccc(S(=O)(=O)Nc3ccnn3-c3ccccc3)cc2)c2ccccc21: > 100 µM
32. CCOC(=O)c1ccc(N=C2C(=S)N(c3ccc(C(=O)OCC)cc3)C(=N)N2/N=C/c2ccccc2)cc1: > 100 µM
